- Target System: HDAC6 enzyme (Homo sapiens, UniProt Q9UBN7)
- Construct: transducing full length HDAC1 and HDAC6 genes into Sf-9 insect cells; GST; purchased SignalChem; host or cells: Sf-9 insect cells
- Sequence (Q9UBN7 whole entry): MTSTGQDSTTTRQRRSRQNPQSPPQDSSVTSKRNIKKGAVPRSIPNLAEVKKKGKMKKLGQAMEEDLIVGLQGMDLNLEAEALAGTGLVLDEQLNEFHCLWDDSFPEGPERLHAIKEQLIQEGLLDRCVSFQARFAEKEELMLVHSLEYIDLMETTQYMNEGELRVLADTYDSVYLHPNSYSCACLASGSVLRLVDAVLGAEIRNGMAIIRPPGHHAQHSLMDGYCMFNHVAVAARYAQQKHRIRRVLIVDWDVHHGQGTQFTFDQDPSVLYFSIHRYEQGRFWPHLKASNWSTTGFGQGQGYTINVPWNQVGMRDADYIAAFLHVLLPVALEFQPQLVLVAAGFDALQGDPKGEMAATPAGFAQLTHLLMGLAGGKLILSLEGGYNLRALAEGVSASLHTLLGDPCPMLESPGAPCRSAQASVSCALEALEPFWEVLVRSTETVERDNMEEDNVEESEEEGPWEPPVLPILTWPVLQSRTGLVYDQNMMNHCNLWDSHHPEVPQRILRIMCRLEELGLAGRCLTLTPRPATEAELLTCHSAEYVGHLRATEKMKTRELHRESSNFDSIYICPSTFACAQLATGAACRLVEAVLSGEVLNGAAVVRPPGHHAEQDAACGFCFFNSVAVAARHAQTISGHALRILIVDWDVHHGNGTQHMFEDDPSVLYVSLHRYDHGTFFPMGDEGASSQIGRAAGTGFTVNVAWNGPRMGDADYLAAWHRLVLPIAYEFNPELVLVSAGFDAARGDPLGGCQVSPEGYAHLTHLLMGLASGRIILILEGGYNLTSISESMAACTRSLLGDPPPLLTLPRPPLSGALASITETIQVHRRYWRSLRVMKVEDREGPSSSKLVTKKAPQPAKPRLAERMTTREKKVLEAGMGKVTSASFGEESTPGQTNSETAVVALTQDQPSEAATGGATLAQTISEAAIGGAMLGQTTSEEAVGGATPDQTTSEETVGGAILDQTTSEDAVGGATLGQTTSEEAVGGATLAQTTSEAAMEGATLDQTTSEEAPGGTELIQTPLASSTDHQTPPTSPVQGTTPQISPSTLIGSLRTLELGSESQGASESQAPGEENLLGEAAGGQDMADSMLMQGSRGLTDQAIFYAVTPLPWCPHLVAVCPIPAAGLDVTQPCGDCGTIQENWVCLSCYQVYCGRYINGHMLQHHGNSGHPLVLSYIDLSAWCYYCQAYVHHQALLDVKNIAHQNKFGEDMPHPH
- Protocol Text: HDAC6 enzyme inhibitory assay (HDAC-Glo I/II Assay kit)
- Assay type: biochemical
- Condition Description: wells without enzyme = 100% inhibition, read-out: HDAC6 inhibitory rate (%) (1 μM)
Reported values of inhibition at 1 µM for individual entries
Field: numeric (%). Do not append units.

For orientation, consider the following solved cases.
Data request: Sample CC(=O)NCC1CCCCN1C(=O)Nc1ccc(-c2noc(C(F)(F)F)n2)cc1 (stereo not shown) [Example 48] — what was its inhibition at 1 µM?
Data returned: 5

Data request: Sample O=C(NCC1CCCCN1C(=O)Nc1ccc(-c2noc(C(F)(F)F)n2)cc1)c1ccncc1 (stereo not shown) [Example 36] — what was its inhibition at 1 µM?
Data returned: 5

Data request: Sample COc1ccc(C(=O)NCC2CCCCN2C(=O)Nc2ccc(-c3noc(C(F)(F)F)n3)cc2)cc1 (stereo not shown) [Example 25] — what was its inhibition at 1 µM?
Data returned: 2

Now turn to the next compound.
Data request: Sample O=C(NCC1CCCCN1C(=O)Nc1ccc(-c2noc(C(F)(F)F)n2)cc1)C1CC1 (stereo not shown) [Example 49] — what was its inhibition at 1 µM?
Data returned: 7

====

Reported values of inhibition at 1 µM for individual entries
- Target System: HDAC9 enzyme (Homo sapiens, UniProt Q9UKV0)
- Construct: transducing full length HDAC9 gene into Sf-9 insect cells; made in house; host or cells: Sf-9 insect cells
- Sequence (Q9UKV0 whole entry, species assumed): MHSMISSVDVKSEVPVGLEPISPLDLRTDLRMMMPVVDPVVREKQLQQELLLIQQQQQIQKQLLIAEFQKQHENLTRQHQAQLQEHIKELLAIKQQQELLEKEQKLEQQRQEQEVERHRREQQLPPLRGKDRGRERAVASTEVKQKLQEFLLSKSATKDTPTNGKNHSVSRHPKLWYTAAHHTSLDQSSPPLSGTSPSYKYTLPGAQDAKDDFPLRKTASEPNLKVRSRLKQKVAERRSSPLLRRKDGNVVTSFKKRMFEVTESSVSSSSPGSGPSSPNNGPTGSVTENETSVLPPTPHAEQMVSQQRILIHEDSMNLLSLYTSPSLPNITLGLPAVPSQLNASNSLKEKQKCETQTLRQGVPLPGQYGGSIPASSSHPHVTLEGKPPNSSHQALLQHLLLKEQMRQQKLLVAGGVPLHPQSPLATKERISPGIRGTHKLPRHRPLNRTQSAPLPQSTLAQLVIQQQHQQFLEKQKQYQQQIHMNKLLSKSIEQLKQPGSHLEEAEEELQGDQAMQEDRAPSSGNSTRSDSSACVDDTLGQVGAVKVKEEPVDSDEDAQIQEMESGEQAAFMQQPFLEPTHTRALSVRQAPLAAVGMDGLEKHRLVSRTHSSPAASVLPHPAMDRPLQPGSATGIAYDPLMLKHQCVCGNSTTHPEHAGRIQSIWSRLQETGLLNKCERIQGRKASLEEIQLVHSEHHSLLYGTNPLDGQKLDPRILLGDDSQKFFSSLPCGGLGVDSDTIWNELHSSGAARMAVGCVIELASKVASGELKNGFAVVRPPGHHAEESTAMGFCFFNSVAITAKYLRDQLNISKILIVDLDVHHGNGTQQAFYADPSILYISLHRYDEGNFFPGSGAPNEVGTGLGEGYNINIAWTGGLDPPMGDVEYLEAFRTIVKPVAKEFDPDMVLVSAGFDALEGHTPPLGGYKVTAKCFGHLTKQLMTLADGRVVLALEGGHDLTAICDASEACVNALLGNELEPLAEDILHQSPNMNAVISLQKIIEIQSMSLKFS
- Protocol Text: HDAC9 enzyme inhibitory assay (HDAC-Glo class IIa)
- Format: biochemical
- Condition Description: wells without enzyme = 100% inhibition, read-out: HDAC9 inhibitory rate (%) (1 μM)
Field: numeric (%). Do not append units.

For orientation, consider the following solved cases.
Data request: Sample O=C(NCC1CCCCN1C(=O)Nc1ccc(-c2noc(C(F)(F)F)n2)cc1)c1cc[n+]([O-])cc1 (centres unmarked) — what was its inhibition at 1 µM?
Data returned: 88

Data request: Sample CN(C)c1cccc(C(=O)NCC2CCCCN2C(=O)Nc2ccc(-c3noc(C(F)(F)F)n3)cc2)c1 (centres unmarked) — what was its inhibition at 1 µM?
Data returned: 86

Data request: Sample O=C(NCC1CCCCN1C(=O)Nc1ccc(-c2noc(C(F)(F)F)n2)cc1)c1cccs1 (centres unmarked) — what was its inhibition at 1 µM?
Data returned: 95

Data request: Sample O=C(NCC1CCCCN1C(=O)Nc1ccc(-c2noc(C(F)(F)F)n2)cc1)c1cc2ccccc2o1 (centres unmarked) — what was its inhibition at 1 µM?
Data returned: 79

Data request: Sample O=C(NCC1COCCN1C(=O)Nc1ccc(-c2noc(C(F)(F)F)n2)cn1)c1ccccc1 (centres unmarked) — what was its inhibition at 1 µM?
Data returned: 94

Others:
Data request: Sample N#Cc1ccccc1C(=O)NCC1CCCCN1C(=O)Nc1ccc(-c2noc(C(F)(F)F)n2)cc1 (centres unmarked) — what was its inhibition at 1 µM?
Data returned: 72

Data request: Sample O=C(NCC1CCCCN1C(=O)Nc1ccc(-c2noc(C(F)(F)F)n2)cc1)c1ccccc1F (centres unmarked) — what was its inhibition at 1 µM?
Data returned: 89

====

- Target System: HDAC9 enzyme (Homo sapiens, UniProt Q9UKV0)
- Construct: transducing full length HDAC9 gene into Sf-9 insect cells; made in house; host or cells: Sf-9 insect cells
- Protocol Text: HDAC9 enzyme inhibitory assay (HDAC-Glo class IIa)
- Assay type: biochemical
- Condition Description: wells without enzyme = 100% inhibition, read-out: HDAC9 inhibitory rate (%) (1 μM)
- Method: HDAC9 Enzyme Inhibitory Assay Enzyme was prepared by transducing full length HDAC9 gene into Sf-9 insect cells and purifying by Ni-NTA affinity column, and HDAC9 enzyme inhibitory activity was evaluated. Enzymes were used after preserved at −70° C. HDAC9 enzyme inhibitory activity of the test compound was measured using HDAC-Glo class IIa (Promega) according to the following experimental method. […]
Endpoint Name: inhibition at 1 µM (%)
Field: numeric (%). Do not append units.

For orientation, consider the following solved cases.
Data request: Sample O=C(Cc1cccs1)NCC1CCCCN1C(=O)Nc1ccc(-c2noc(C(F)(F)F)n2)cc1 (stereo not shown) — what was its inhibition at 1 µM?
Data returned: 94

Data request: Sample Cn1cnc(C(=O)NCC2CCCCN2C(=O)Nc2ccc(-c3noc(C(F)(F)F)n3)cc2)c1 (stereo not shown) — what was its inhibition at 1 µM?
Data returned: 76

Others:
Data request: Sample Cn1nccc1C(=O)NCC1CCCCN1C(=O)Nc1ccc(-c2noc(C(F)(F)F)n2)cc1 (stereo not shown) — what was its inhibition at 1 µM?
Data returned: 98

Data request: Sample Cc1ccnc(C(=O)NCC2CCCCN2C(=O)Nc2ccc(-c3noc(C(F)(F)F)n3)cc2)c1 (stereo not shown) — what was its inhibition at 1 µM?
Data returned: 83

Where these numbers come from: patent US10406146B2
